# credit: patent US20240417410A1

tested system: KRAS G12C-BRAF complex (Homo sapiens (Human), UniProt P01116+P62937, G12C)
Sequence (P01116-2 other isoform, or with tags, fused parts or gaps G12C): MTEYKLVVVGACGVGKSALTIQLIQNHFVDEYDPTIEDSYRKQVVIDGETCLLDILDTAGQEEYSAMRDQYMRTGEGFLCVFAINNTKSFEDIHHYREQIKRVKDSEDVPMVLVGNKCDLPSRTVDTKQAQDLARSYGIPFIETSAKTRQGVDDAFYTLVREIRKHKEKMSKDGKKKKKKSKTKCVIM
Sequence (P62937 whole entry): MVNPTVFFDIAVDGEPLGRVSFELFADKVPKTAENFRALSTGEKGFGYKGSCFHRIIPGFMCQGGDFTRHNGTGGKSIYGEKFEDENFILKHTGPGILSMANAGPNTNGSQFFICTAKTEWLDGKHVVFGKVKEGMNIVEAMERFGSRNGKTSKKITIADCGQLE
experiment summary: KRAS-BRAF with CYPA (500 nM) interaction assay (TR-FRET, Example 136)
test context: KRAS G12C-BRAF disruption
In this section, each of the molecules is paired with its reported IC50.
Number first, unit second: that is the form wanted.

{"columns": ["molecule", "IC50"],
 "data": [
  ["CO[C@@H](C)c1ncc(N2CCN(CCC(C)(C)OC)CC2)cc1-c1c2c3cc(cc4c3n1CCC4)-c1csc(n1)C[C@H](NC(=O)[C@H]1[C@H](C)[C@@H]1C)C(=O)N1CCC[C@H](N1)C(=O)OCC(C)(C)C2 (atropisomer, axis not shown; (M))", "13.7 nM"],
  ["CO[C@@H](C)c1ncc(N2CCN(C)CC2)cc1-c1c2c3cc(cc4c3n1CCC4)-c1csc(n1)C[C@H](NC(=O)[C@@H]1C[C@H]1c1cscn1)C(=O)N1CCC[C@H](N1)C(=O)OCC(C)(C)C2 (atropisomer, axis not shown; (M))", "8.9 nM"],
  ["CO[C@@H](C)c1ncc(N2CCN(C)CC2)cc1-c1c2c3cc(cc4c3n1CCC4)-c1csc(n1)C[C@H](NC(=O)[C@H]1C[C@H]1C)C(=O)N1CCC[C@H](N1)C(=O)OCC(C)(C)C2 (atropisomer, axis not shown; (M))", "19.5 nM"]
]}

Query (molecule): CO[C@@H](C)c1ncc(N2CCN3CCOC[C@@H]3C2)cc1-c1c2c3cc(cc4c3n1CCC4)-c1csc(n1)C[C@H](NC(=O)[C@H]1C[C@@H]1c1cncnc1)C(=O)N1CCC[C@H](N1)C(=O)OCC(C)(C)C2 (atropisomer, axis not shown; (M)) ; field requested: IC50 13.3 nM

====

tested system: KRAS G12C-BRAF complex (Homo sapiens (Human), UniProt P01116+P62937, G12C)
experiment summary: KRAS-BRAF with CYPA (500 nM) interaction assay (TR-FRET, Example 136)
test context: KRAS G12C-BRAF disruption
In this section, each of the compounds is paired with its reported IC50.
Reply with just the number (in µM).

{"columns": ["compound", "tested system", "IC50 / µM"],
 "data": [
  ["CO[C@@H](C)c1ncc(N2CCN(C3CCOCC3)CC2)cc1-c1c2c3cc(cc4c3n1CCC4)-c1csc(n1)C[C@H](NC(=O)[C@H]1[C@H](C)[C@@H]1C)C(=O)N1CCC[C@H](N1)C(=O)OCC(C)(C)C2 (atropisomer, axis not shown; (M)) [Example 117]", "KRAS G12C-BRAF complex (Homo sapiens (Human), UniProt P01116+P62937, G12C)", 0.0159]
]}

// switching to the query compound
Fill in the recorded IC50 for this compound, with KRAS G12C-BRAF complex (Homo sapiens (Human), UniProt P01116+P62937, G12C) as test system: CO[C@@H](C)c1ncc(N2CCN(CC(F)(F)F)CC2)cc1-c1c2c3cc(cc4c3n1CCO4)-c1csc(n1)C[C@H](NC(=O)[C@H]1C[C@@H]1C(F)F)C(=O)N1CCC[C@H](N1)C(=O)OCC(C)(C)C2 (atropisomer, axis not shown; (M)) [Example 11] 0.0124

====

In this section, each of the molecules is paired with its reported IC50.
tested system: KRAS G12C-BRAF complex (Homo sapiens (Human), UniProt P01116+P62937, G12C)
experiment summary: KRAS-BRAF with CYPA (500 nM) interaction assay (TR-FRET, Example 136)
test context: KRAS G12C-BRAF disruption
Reply with just the number (in nM).

{"columns": ["molecule", "tested system", "quantity unit", "IC50"],
 "data": [
  ["CO[C@@H](C)c1ncc(N2CCN(C)CC2)cc1-c1c2c3cc(cc4c3n1CC(F)(F)C4)-c1csc(n1)C[C@H](NC(=O)[C@H]1C[C@@H]1C)C(=O)N1CCC[C@H](N1)C(=O)OCC(C)(C)C2 (atropisomer, axis not shown; (M)) [Example 18]", "KRAS G12C-BRAF complex (Homo sapiens (Human), UniProt P01116+P62937, G12C)", "nM", 14.7]
]}

// switching to the query molecule
Query (molecule): CO[C@@H](C)c1ncc(N2CCOCC2)cc1-c1c2c3cc(cc4c3n1CCO4)-c1csc(n1)C[C@H](NC(=O)[C@H]1[C@H](C)[C@@H]1C)C(=O)N1CCC[C@H](N1)C(=O)OCC(C)(C)C2 (atropisomer, axis not shown; (M)) [Example 68] ; field requested: IC50 16.8
